Catalogue of pIC50 readings, one per entry.
Target: Interleukin-23 receptor (Homo sapiens, UniProt Q5VWK5)
Assay: Inhibition of interleukin-23 binding to human interleukin-23 receptor incubated for 2 hrs by competitive binding ELISA
pIC50: −log10 of the molar value.
measuredQuantity: pIC50

[
  {
    "lineNotation": "COc1ccc(C[C@H](NC(=O)[C@@H](NC(=O)[C@H](CCC(N)=O)NC(=O)[C@H](Cc2c[nH]c3ccccc23)NC(=O)[C@@H](NC(=O)[C@H](CCC(N)=O)NC(=O)[C@@H](NC(C)=O)C(C)(C)S)[C@@H](C)O)C(C)(C)S)C(=O)N[C@@H](Cc2c[nH]c3ccccc23)C(=O)N[C@@](C)(CCCCN)C(=O)N[C@@H](CCCCNC(C)=O)C(=O)N[C@@H](CC(N)=O)C(=O)NCC(N)=O)cc1",
    "tgt": "Interleukin-23 receptor (Homo sapiens, UniProt Q5VWK5)",
    "reportedValue": "7.00 to 7.60"
  },
  {
    "lineNotation": "CC(C)[C@H](NC(=O)[C@H](Cc1c[nH]c2ccccc12)NC(=O)[C@H](CC(=O)O)NC(=O)[C@H](C)NC(=O)[C@@H](N)CS)C(=O)N[C@@H](CS)C(=O)N[C@@H](Cc1ccc(O)cc1)C(=O)N[C@@H](Cc1c[nH]c2ccccc12)C(=O)N[C@@H](Cc1cnc[nH]1)C(=O)N[C@H](C(N)=O)[C@@H](C)O",
    "tgt": "Interleukin-23 receptor (Homo sapiens, UniProt Q5VWK5)",
    "reportedValue": "< 6.00"
  },
  {
    "lineNotation": "CC(=O)N[C@@H](CS)C(=O)N[C@@H](CCCNC(=N)N)C(=O)N[C@@H](CC(=O)O)C(=O)N[C@@H](Cc1c[nH]c2ccccc12)C(=O)N[C@@H](CCC(N)=O)C(=O)N[C@@H](CS)C(=O)N[C@@H](Cc1ccc(O)cc1)C(=O)N[C@@H](Cc1c[nH]c2ccccc12)C(=O)N[C@@H](Cc1cnc[nH]1)C(=O)N[C@@H](CCCCN)C(=O)N[C@@H](Cc1ccccc1)C(=O)NCC(=O)NCCOCCC(=O)N[C@H](CCCCN)C(=O)O",
    "tgt": "Interleukin-23 receptor (Homo sapiens, UniProt Q5VWK5)",
    "reportedValue": "> 6.30"
  }
]

* * *

Experiment: Inhibition of interleukin-23 binding to rat interleukin-23 receptor incubated for 2 hrs by competitive binding ELISA
Where a SMILES comes first, the peptide text is derived from it. [ ]: non-standard residue; d: D form. hLeu = CC(C)CC[C@H](N)C(=O)O
Catalogue of IC50 readings, one per entry.

[
  {
    "compound": "CC(=O)N[C@@H](CS)C(=O)N[C@H](C(=O)N[C@H](C(=O)N[C@@H](Cc1c[nH]c2ccccc12)C(=O)N[C@@H](CCC(N)=O)C(=O)N[C@@H](CS)C(=O)N[C@@H](Cc1ccc(O)cc1)C(=O)N[C@@H](Cc1c[nH]c2ccccc12)C(=O)N[C@@H](CCC(C)C)C(=O)N[C@@H](CCC(=O)O)C(=O)N[C@@H](CC(N)=O)C(=O)NCC(N)=O)[C@@H](C)O)[C@@H](C)O (Ac-CTTWQCYW[hLeu]ENG-NH2)",
    "IC50": "28 nM"
  },
  {
    "compound": "CC(=O)NCCCC[C@H](NC(=O)C(C)(C)NC(=O)[C@H](Cc1ccc2ccccc2c1)NC(=O)[C@H](Cc1ccc(OCCN)cc1)NC(=O)[C@@H](NC(=O)[C@H](CCC(N)=O)NC(=O)[C@H](Cc1c[nH]c2ccccc12)NC(=O)[C@@H](NC(=O)[C@H](CC(N)=O)NC(=O)[C@@H](NC(C)=O)C(C)(C)S)[C@@H](C)O)C(C)(C)S)C(=O)N[C@@H](CC(N)=O)C(=O)NCCC(N)=O",
    "IC50": "10 to 25 nM"
  },
  {
    "compound": "COc1ccc(C[C@H](NC(=O)[C@@H]2CSCC[C@H](NC(=O)[C@@H](CCCCN)NC(C)=O)C(=O)N[C@@H](CCC(N)=O)C(=O)N[C@@H]([C@@H](C)O)C(=O)N[C@@H](Cc3c[nH]c4ccccc34)C(=O)N[C@@H](CCC(N)=O)C(=O)N2)C(=O)N[C@@H](Cc2ccc3ccccc3c2)C(=O)N[C@@](C)(CC(C)C)C(=O)N[C@@H](CCC(=O)O)C(=O)N[C@@H](CC(N)=O)C(=O)NCC(N)=O)cc1",
    "IC50": "10 to 25 nM"
  }
]

* * *

Target: Interleukin-23 receptor (Homo sapiens)
Sequence (Q5VWK5 whole entry): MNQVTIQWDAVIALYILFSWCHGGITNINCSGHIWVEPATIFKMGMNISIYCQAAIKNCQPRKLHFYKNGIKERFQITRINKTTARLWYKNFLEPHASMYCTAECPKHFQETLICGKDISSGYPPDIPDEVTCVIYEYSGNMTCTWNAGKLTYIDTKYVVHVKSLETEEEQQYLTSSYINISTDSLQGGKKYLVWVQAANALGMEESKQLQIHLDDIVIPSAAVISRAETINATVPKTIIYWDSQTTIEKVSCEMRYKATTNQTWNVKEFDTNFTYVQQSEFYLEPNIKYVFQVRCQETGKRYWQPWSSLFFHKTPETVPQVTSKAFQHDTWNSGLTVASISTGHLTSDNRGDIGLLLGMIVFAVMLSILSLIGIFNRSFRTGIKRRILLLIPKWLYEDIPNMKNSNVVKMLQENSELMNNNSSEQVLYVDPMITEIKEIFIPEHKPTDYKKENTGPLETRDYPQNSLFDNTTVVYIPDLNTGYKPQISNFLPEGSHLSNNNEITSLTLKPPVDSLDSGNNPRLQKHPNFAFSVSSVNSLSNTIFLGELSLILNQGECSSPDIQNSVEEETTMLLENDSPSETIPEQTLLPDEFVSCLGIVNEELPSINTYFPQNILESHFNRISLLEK
Test: Inhibition of interleukin-23 receptor in human DB cells assessed as reduction in IL-23-stimulated STAT3 phosphorylation incubated for 30 mins by HTRF assay
Assay type: cell-based
Catalogue of IC50 readings, one per entry.

[
  {
    "lineNotation": "CC(=O)N[C@H](C(=O)N[C@@H](C)C(=O)N[C@@H](CC(=O)O)C(=O)N[C@@H](Cc1c[nH]c2ccccc12)C(=O)N[C@H](C(=O)N[C@@H](CS)C(=O)N[C@@H](Cc1ccc(O)cc1)C(=O)N[C@@H](Cc1c[nH]c2ccccc12)C(=O)N[C@@H](Cc1cnc[nH]1)C(=O)N[C@H](C(=O)N[C@@H](Cc1ccccc1)C(=O)NCC(=O)NCCOCC(=O)N[C@H](CCCCN)C(N)=O)[C@@H](C)O)C(C)C)C(C)(C)S",
    "tgt": "Interleukin-23 receptor (Homo sapiens)",
    "IC50": "100 to 1000 nM"
  },
  {
    "lineNotation": "CC(=O)NCCCC[C@H](NC(=O)[C@](C)(CCCCNC(C)=O)NC(=O)[C@H](Cc1ccc2ccccc2c1)NC(=O)[C@H](Cc1ccc(OCCNC(C)=O)cc1)NC(=O)[C@@H](NC(=O)[C@H](CCC(N)=O)NC(=O)[C@H](Cc1c[nH]c2ccccc12)NC(=O)[C@@H](NC(=O)[C@H](CCC(N)=O)NC(=O)[C@@H](NC(C)=O)C(C)(C)S)[C@@H](C)O)C(C)(C)S)C(=O)N[C@@H](CC(N)=O)C(=O)N[C@@H](CC(N)=O)C(N)=O",
    "tgt": "Interleukin-23 receptor (Homo sapiens)",
    "IC50": "< 10 nM"
  },
  {
    "lineNotation": "COc1ccc(C[C@H](NC(=O)[C@@H]2CSCC[C@H](NC(C)=O)C(=O)N[C@@H](CCC(N)=O)C(=O)N[C@@H]([C@@H](C)O)C(=O)N[C@@H](Cc3c[nH]c4ccccc34)C(=O)N[C@@H](CCC(N)=O)C(=O)N2)C(=O)N[C@@H](Cc2cccc3ccccc23)C(=O)N[C@@](C)(CCCCN)C(=O)N[C@@H](CCCCNC(C)=O)C(=O)N[C@@H](CC(N)=O)C(=O)NCC(N)=O)cc1",
    "tgt": "Interleukin-23 receptor (Homo sapiens)",
    "IC50": "10 to 25 nM"
  },
  {
    "lineNotation": "COc1ccc(C[C@H](NC(=O)[C@@H](NC(=O)[C@H](CCC(N)=O)NC(=O)[C@H](Cc2c[nH]c3ccccc23)NC(=O)[C@@H](NC(=O)[C@H](CCC(N)=O)NC(=O)[C@@H](NC(C)=O)C(C)(C)S)[C@@H](C)O)C(C)(C)S)C(=O)N[C@@H](Cc2cccc3ccccc23)C(=O)N[C@@](C)(CCCCN)C(=O)N[C@@H](CCCCNC(C)=O)C(=O)N[C@@H](CC(N)=O)C(=O)NCC(N)=O)cc1",
    "tgt": "Interleukin-23 receptor (Homo sapiens)",
    "IC50": "25 to 100 nM"
  },
  {
    "lineNotation": "COc1ccc(C[C@H](NC(=O)[C@@H](NC(=O)[C@H](CCC(N)=O)NC(=O)[C@H](Cc2c[nH]c3ccccc23)NC(=O)[C@@H](NC(=O)[C@H](CCC(N)=O)NC(=O)[C@@H](NC(C)=O)C(C)(C)S)[C@@H](C)O)C(C)(C)S)C(=O)N[C@@H](Cc2ccc3ccccc3c2)C(=O)NC(C)(C)C(=O)N[C@@H](CCCCNC(C)=O)C(=O)N[C@@H](CC(N)=O)C(=O)NCCC(N)=O)cc1",
    "tgt": "Interleukin-23 receptor (Homo sapiens)",
    "IC50": "< 10 nM"
  }
]
